Taken from patent US10874646B2.

Tested on: NCI/ADR-RES
Assay: Cytotoxicity, standard NCI assay with sulforhodamine B, 96 h
Format: cell-based, human
Conditions: NCI/ADR-RES (overexpresses P-glycoprotein); IC50, 96 h at 37° C.; Table 3; read-out: Cytotoxicity (nM, ± SD) NCI/ADR-RES

[
  {
    "molecule": "C/C(=C\\c1csc(C)n1)[C@@H]1C[C@@H]2O[C@]2(C)CCC[C@H](C)[C@H](O)[C@@H](C)C(=O)C(C)(C)[C@@H](O)CC(=O)O1 [EpoB, epothilone B, reference compound]",
    "IC50": "19 nM"
  },
  {
    "molecule": "C/C(=C\\c1csc(C)n1)[C@@H]1C[C@@H]2O[C@@H]2CCC[C@H](C)[C@H](O)[C@@H](C)C(=O)C(C)(C)[C@@H](O)CC(=O)O1",
    "IC50": "35 nM"
  }
]

----------
Recorded GI50 for the following compounds
Test system: MCF-7
Test: Cytotoxicity, standard NCI assay with sulforhodamine B, 96 h
Conditions: read-out: cytotoxicity (GI50, nM ± SD) MCF-7; MCF-7; 96 h at 37° C.; Table 2

[
  {
    "compound": "C/C1=C/C[C@@H](/C(C)=C/c2csc(C)n2)OC(=O)C[C@H](O)C(C)(C)C(=O)[C@H](C)[C@@H](O)[C@@H](C)CCC1 [EpoD, epothilone D, reference compound]",
    "GI50 (nM)": 14
  },
  {
    "compound": "C/C(=C\\c1csc(C)n1)[C@@H]1C/C=C\\CCC[C@H](C)[C@H](O)[C@@H](C)C(=O)C(C)(C)[C@@H](O)CC(=O)O1 [EpoC, epothilone C, reference compound]",
    "GI50 (nM)": 70
  },
  {
    "compound": "C/C(=C\\c1csc(C)n1)[C@@H]1C[C@@H]2O[C@]2(C)CCC[C@H](C)[C@H](O)[C@@H](C)C(=O)C(C)(C)[C@@H](O)CC(=O)O1 [EpoB, epothilone B, reference compound]",
    "GI50 (nM)": 5.5
  },
  {
    "compound": "C/C(=C\\c1csc(C)n1)[C@@H]1C[C@@H]2O[C@@H]2CCC[C@H](C)[C@H](O)[C@@H](C)C(=O)C(C)(C)[C@@H](O)CC(=O)O1",
    "GI50 (nM)": 10
  }
]

----------
System: K-562
Assay: NCI-60 human cancer cell line panel, five dose screen
Assay type: cell-based
Conditions: K562, NCI-60 five dose screen

[
  {
    "compound": "C/C(=C\\c1ccn(-c2ccc(N)cc2)n1)[C@@H]1C[C@@H]2O[C@]2(C)CCC[C@H](C)[C@H](O)[C@@H](C)C(=O)C(C)(C)[C@@H](O)CC(=O)O1 [Compound 8]",
    "unit": "nM",
    "operatorSymbol": "=",
    "GI50": 24.7
  },
  {
    "compound": "C/C(=C\\c1ccn(-c2ccccc2N)n1)[C@@H]1C[C@@H]2O[C@]2(C)CCC[C@H](C)[C@H](O)[C@@H](C)C(=O)C(C)(C)[C@@H](O)CC(=O)O1 [Compound 10]",
    "unit": "nM",
    "operatorSymbol": "=",
    "GI50": 24.4
  },
  {
    "compound": "C/C(=C\\c1ccn(-c2ccc(N)c(C(F)(F)F)c2)n1)[C@@H]1C[C@@H]2O[C@]2(C)CCC[C@H](C)[C@H](O)[C@@H](C)C(=O)C(C)(C)[C@@H](O)CC(=O)O1 [Compound 11]",
    "unit": "nM",
    "operatorSymbol": "=",
    "GI50": 10.2
  },
  {
    "compound": "C/C(=C\\c1ccn(-c2ccc(N)cc2F)n1)[C@@H]1C[C@@H]2O[C@]2(C)CCC[C@H](C)[C@H](O)[C@@H](C)C(=O)C(C)(C)[C@@H](O)CC(=O)O1 [Compound 14]",
    "unit": "nM",
    "operatorSymbol": "=",
    "GI50": 20.7
  },
  {
    "compound": "C/C(=C\\c1cc(C(F)(F)F)n(-c2ccc(N)cc2)n1)[C@@H]1C[C@@H]2O[C@]2(C)CCC[C@H](C)[C@H](O)[C@@H](C)C(=O)C(C)(C)[C@@H](O)CC(=O)O1 [Compound 9]",
    "unit": "nM",
    "operatorSymbol": "=",
    "GI50": 15.7
  },
  {
    "compound": "C/C(=C\\c1ccn(-c2ccc(N)c(F)c2)n1)[C@@H]1C[C@@H]2O[C@]2(C)CCC[C@H](C)[C@H](O)[C@@H](C)C(=O)C(C)(C)[C@@H](O)CC(=O)O1 [Compound 12]",
    "unit": "nM",
    "operatorSymbol": "<",
    "GI50": 5
  }
]
